# credit: patent US11014911B2

- TARGET_OF_ASSAY: GSK3β (H350L) (Homo sapiens (Human), UniProt P49841)
- Sequence (P49841 whole entry, stated change not applied): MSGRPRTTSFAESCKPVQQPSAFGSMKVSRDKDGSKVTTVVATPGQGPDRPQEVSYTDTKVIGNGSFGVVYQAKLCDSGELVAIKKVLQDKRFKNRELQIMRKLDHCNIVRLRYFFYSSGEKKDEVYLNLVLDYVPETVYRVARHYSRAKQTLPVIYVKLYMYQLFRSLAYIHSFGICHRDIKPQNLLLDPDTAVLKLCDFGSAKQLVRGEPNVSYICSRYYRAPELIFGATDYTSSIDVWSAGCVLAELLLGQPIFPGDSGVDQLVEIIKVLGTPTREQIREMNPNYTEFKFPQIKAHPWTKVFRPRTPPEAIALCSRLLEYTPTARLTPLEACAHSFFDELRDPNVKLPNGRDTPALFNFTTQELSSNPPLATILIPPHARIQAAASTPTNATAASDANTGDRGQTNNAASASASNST
- TEST_METHOD_NOTES: biochemical
- COND: GSK3β Ki (nM)
Record form. Attribute: Ki. Fill in for each entry.
I only need the number, in nM, no unit after it.

Returns the measured Ki for the input compound. Input: COc1ccc(CC(=O)Nc2cc([C@H]3CC[C@@H](OC(=O)NC4(C)CCOC4)C3)[nH]n2)cn1 (single isomer, unassigned) [Example 122]
12.7

// next record CCC1CCN1C(=O)O[C@@H]1CC[C@H](c2cc(NC(=O)Cc3cc(C)no3)n[nH]2)C1 (single isomer, unassigned) [Example 597]
20.9

// next record Cc1cnc(CC(=O)Nc2cc([C@@H]3CC[C@H](OC(=O)NC4(C)CCOC4)C3)[nH]n2)o1 (single isomer, unassigned) [Example 475]
23.9

// next record CC(CC(F)(F)F)N(C)C(=O)O[C@@H]1CC[C@H](c2cc(NC(=O)Cc3cnn(C)c3)n[nH]2)C1 (single isomer, unassigned) [Example 413]
14.7

// next record Cc1ccc(CC(=O)Nc2cc([C@H]3CC[C@@H](OC(=O)NC(C)CC(F)(F)F)C3)[nH]n2)cn1 (single isomer, unassigned) [Example 76]
4.96

// next record CC1(NC(=O)O[C@@H]2CC[C@H](c3cc(NC(=O)Cc4ccccc4)n[nH]3)C2)CCOC1 (single isomer, unassigned)
80.7

----------
Record form. Attribute: log10(Ki). Fill in for each entry.
- TARGET_OF_ASSAY: CDK2/Cyclin E1 full length (Homo sapiens (Human))
- TEST_METHOD_NOTES: CDK2/Cyclin E1 full length mobility shift assay
Would you kindly interpret these values as log10 of Ki expressed in nM?

Returns the measured log10(Ki) for the input molecule. Input: `CC1(NC(=O)O[C@@H]2CC[C@H](c3cc(NC(=O)Cc4coc(C5CC5)n4)n[nH]3)C2)CC1`
0.10

// next record `CC[C@H](C)NC(=O)O[C@@H]1CC[C@H](c2cc(NC(=O)Cc3cnccn3)n[nH]2)C1`
-0.09

// next record `CC(C)(C)CNC(=O)O[C@@H]1CC[C@H](c2cc(NC(=O)Cc3ccno3)n[nH]2)C1`
0.43

// next record CCC(NC(=O)O[C@@H]1CC[C@H](c2cc(NC(=O)Cc3ccc(C)nc3)n[nH]2)C1)C(F)(F)F (single isomer, unassigned) [Example 399]
-0.33

// next record CC(CC(F)F)NC(=O)O[C@@H]1CC[C@H](c2cc(NC(=O)Cc3cnn(C)c3)n[nH]2)C1 (single isomer, unassigned) [Example 386]
-0.18

// next record `C[C@@H]1CCN1C(=O)O[C@@H]1CC[C@H](c2cc(NC(=O)Cc3cnn(C)c3)n[nH]2)C1`
0.44

// next record `COc1ccc(CC(=O)Nc2cc([C@H]3CC[C@@H](OC(=O)NCC(F)F)C3)[nH]n2)cn1`
0.14

// next record `CCCNC(=O)O[C@H]1CC[C@@H](c2cc(NC(=O)c3ccc(OC)nc3)n[nH]2)C1`
-0.09

// next record `COCCn1nccc1C(=O)Nc1cc([C@H]2CC[C@@H](OC(=O)NC(C)(C)C)C2)[nH]n1`
-0.52

// next record `CCC1(NC(=O)O[C@@H]2CC[C@H](c3cc(NC(=O)Cc4ncc(C)o4)n[nH]3)C2)CC1`
-0.54

// next record `COC[C@H](C)NC(=O)O[C@@H]1CC[C@H](c2cc(NC(=O)Cc3ccccc3)[nH]n2)C1`
0.11

// next record `COCc1cc(C(=O)Nc2cc([C@H]3CC[C@@H](OC(=O)N[C@H](C)C4CC4)C3)[nH]n2)n(C)n1`
-0.33

// next record `Cc1cnc(CC(=O)Nc2cc([C@@H]3CC[C@H](OC(=O)NC(C)C)C3)[nH]n2)o1`
-0.07

// next record COc1cc(CC(=O)Nc2cc([C@H]3CC[C@@H](OC(=O)N[C@@H](C)[C@H](C)F)C3)[nH]n2)ccn1 (single isomer, unassigned) [Example 384]
0.09

// next record CCC(CO)CNC(=O)O[C@@H]1CC[C@H](c2cc(NC(=O)Cc3cc(C)no3)n[nH]2)C1 (single isomer, unassigned) [Example 525]
0.09

// next record `COc1cc(C(=O)Nc2cc([C@H]3CC[C@@H](OC(=O)N[C@@H](C)CC(F)(F)F)C3)[nH]n2)n(C)n1`
-0.82

// next record `COc1cnc(CC(=O)Nc2cc([C@H]3CC[C@@H](OC(=O)NC(C)(C)C)C3)[nH]n2)s1`
-0.44

// next record COc1ccc(S(C)(=O)=O)c(CC(=O)Nc2cc([C@H]3CC[C@@H](OC(=O)NC(C)C(F)(F)F)C3)[nH]n2)c1 (single isomer, unassigned) [Example 292]
-0.07

// next record Cc1cnc(CC(=O)Nc2cc([C@H]3CC[C@@H](OC(=O)NC(C)CC(F)F)C3)[nH]n2)o1 (single isomer, unassigned) [Example 97]
-0.41

// next record `CCCNC(=O)O[C@H]1CC[C@@H](c2cc(NC(=O)c3ccc(C)nc3C)n[nH]2)C1`
-0.09

// next record `O=C(Cc1cc(F)cc(F)c1)Nc1cc([C@@H]2CC[C@H](OC(=O)N[C@H]3CC[C@H](O)CC3)C2)[nH]n1`
-0.74

// next record `CC[C@H](C)CNC(=O)O[C@@H]1CC[C@H](c2cc(NC(=O)Cc3ccno3)n[nH]2)C1`
0.17

// next record `CC[C@H](C)CNC(=O)O[C@@H]1CC[C@H](c2cc(NC(=O)Cc3cnc(C)s3)n[nH]2)C1`
-0.09

// next record `Cc1cc(CC(=O)Nc2cc([C@H]3CC[C@@H](OC(=O)N4CCCCC4(C)C)C3)[nH]n2)on1`
-0.96

// next record `Cc1ccc(CC(=O)Nc2cc([C@@H]3CC[C@H](OC(=O)N[C@H]4CC[C@@H](O)CC4)C3)[nH]n2)cn1`
-0.41

// next record `COc1ccc(CC(=O)Nc2cc([C@H]3CC[C@@H](OC(=O)NCC(F)F)C3)[nH]n2)cc1`
0.21

// next record `Cc1ccnc(CC(=O)Nc2cc([C@H]3CC[C@@H](OC(=O)NC(C)(C)C)C3)[nH]n2)c1Cl`
-0.20

// next record `CCNC(=O)O[C@@H]1CC[C@H](c2cc(NC(=O)Cc3ccc(OC)cc3)n[nH]2)C1`
0.19

----------
- TARGET_OF_ASSAY: GSK3β (H350L) (Homo sapiens (Human))
- COND: read-out: GSK3β Ki
MEASUREMENT_NAME: Ki (nM)
I only need the number, in nM, no unit after it.

Returns the measured Ki for the input compound. Input: `CC[C@H](C)NC(=O)O[C@@H]1CC[C@H](c2cc(NC(=O)Cc3cnc(C)cn3)n[nH]2)C1`
31.2

// next record `CC[C@H](C)NC(=O)O[C@@H]1CC[C@H](c2cc(NC(=O)Cc3ccccc3S(=O)(=O)NC)n[nH]2)C1`
10.8

// next record `Cc1ncc(CC(=O)Nc2cc([C@H]3CC[C@@H](OC(=O)N4CCC[C@@H]4C)C3)[nH]n2)s1`
8.48

// next record `CC[C@H](C)NC(=O)O[C@@H]1CC[C@H](c2cc(NC(=O)Cc3ccc(C(=O)N(C)C)cc3)n[nH]2)C1`
59.9

// next record `Cc1cnc(CC(=O)Nc2cc([C@H]3CC[C@@H](OC(=O)NC4(C)CCC4)C3)[nH]n2)o1`
17.8

// next record `COc1ccc(S(C)(=O)=O)c(CC(=O)Nc2cc([C@H]3CC[C@@H](OC(=O)NC(C)(C)C)C3)[nH]n2)c1`
123

----------
- TARGET_OF_ASSAY: CDK2/Cyclin E1 full length (Homo sapiens (Human), UniProt P24941)
- TEST_METHOD_NOTES: CDK2/Cyclin E1 full length mobility shift assay
MEASUREMENT_NAME: pKi
pKi is a log-scale quantity: -log10 of the concentration expressed in molar.

Returns the measured pKi for the input compound. Input: `CC1(NC(=O)O[C@@H]2CC[C@H](c3cc(NC(=O)Cc4cc(Cl)ccn4)n[nH]3)C2)CC1`
9.70

// next record `CC1(NC(=O)O[C@@H]2CC[C@H](c3cc(NC(=O)Cc4ccc(F)cn4)n[nH]3)C2)CC1`
8.94

// next record `CCC(C)(C)NC(=O)O[C@@H]1CC[C@H](c2cc(NC(=O)Cc3ncc(C)o3)n[nH]2)C1`
9.68

// next record Cc1ncc(CC(=O)Nc2cc([C@H]3CC[C@@H](OC(=O)NC(C)CC(F)(F)F)C3)[nH]n2)s1 (single isomer, unassigned) [Example 79]
9.27
